System: Enterococcus sp.
TEST_NAME: in vitro antibacterial evaluation, MIC by broth dilution
Type: cell-based
CONDITION_LABEL: broth dilution, 18 hours at 35° C.
Excerpt: Methods for in vitro Antibacterial Evaluation (Table 1) […]
Listed here: items and their measured MIC Enterococcus faecalis (GC 4554).

COMPOUND	SYSTEM_NAME	MIC Enterococcus faecalis (GC 4554)
CC(c1ccccc1)C1NC(=O)CNC(=O)C(CO)NC(=O)C(C(O)C2CN(c3nc4ccccc4o3)C(=N)N2C2OC(CO)C(O)C(O)C2O)NC(=O)C(C(O)C2CNC(=Nc3nc4ccccc4o3)N2)NC(=O)C(Cc2ccc(OC3OC(CO)C(OC4OC(CO)C(O)C(O)C4O)C(O)C3O)cc2)NC1=O (stereo not drawn) [Example 93]	Enterococcus sp.	>128 µg/mL
CC(c1ccccc1)C1NC(=O)CNC(=O)C(CO)NC(=O)C(C(O)C2CN(Cc3ccccc3)C(=NCc3ccccc3)N2C2OC(CO)C(O)C(O)C2O)NC(=O)C(C(O)C2CN(Cc3ccccc3)C(=NCc3ccccc3)N2Cc2ccccc2)NC(=O)C(Cc2ccc(OC3OC(CO)C(OC4OC(CO)C(O)C(O)C4O)C(O)C3O)cc2)NC1=O (stereo not drawn) [Example 62]	Enterococcus sp.	>128 µg/mL
CC(c1ccccc1)C1NC(=O)CNC(=O)C(CO)NC(=O)C(C(O)C2CN(Cc3ccccc3)C(=NCc3ccccc3)N2C2OC(CO)C(O)C(O)C2O)NC(=O)C(C(O)C2CN(Cc3ccccc3)C(=NCc3ccccc3)N2Cc2ccccc2)NC(=O)C(Cc2ccc(OC3OC(CO)C(OC4OC5COC6(OC5C(O)C4O)C4CC5CC(C4)CC6C5)C(O)C3O)cc2)NC1=O (stereo not drawn) [Example 79]	Enterococcus sp.	16 µg/mL

###

Test system: Escherichia coli
TEST_NAME: in vitro antibacterial evaluation, MIC by broth dilution
Type: cell-based
CONDITION_LABEL: 18 hours at 35° C.
From the text: […]

MOLECULE	MIC Escherichia coli (ATCC 25922)
CC(c1ccccc1)C1NC(=O)CNC(=O)C(CO)NC(=O)C(C(O)C2CN(Cc3ccc4ccccc4c3)C(=N)N2C2OC(CO)C(O)C(O)C2O)NC(=O)C(C(O)C2CNC(=N)N2)NC(=O)C(Cc2ccc(OC3OC(CO)C(OC4OC5COC6(OC5C(O)C4O)C4CC5CC(C4)CC6C5)C(O)C3O)cc2)NC1=O (centres unmarked) [Example 78]	128 µg/mL
CC(c1ccccc1)C1NC(=O)CNC(=O)C(CO)NC(=O)C(C(O)C2CN(c3nc4ccccc4o3)C(=N)N2C2OC(CO)C(O)C(O)C2O)NC(=O)C(C(O)C2CNC(=Nc3nc4ccccc4o3)N2)NC(=O)C(Cc2ccc(OC3OC(CO)C(OC4OC5COC6(OC5C(O)C4O)C4CC5CC(C4)CC6C5)C(O)C3O)cc2)NC1=O (centres unmarked) [Example 227]	>128 µg/mL

###

Tested on: Staphylococcus sp.
TEST_NAME: in vitro antibacterial evaluation, MIC by broth dilution
Assay type: cell-based
CONDITION_LABEL: broth dilution, 18 hours at 35° C.
PROPERTY_MEASURED: MIC Coagulase Negative Staphylococcus (GC 4549) (µg/mL)

COMPOUND	INEQUALITY_SIGN	QUANTITATIVE_READOUT
CC(c1ccccc1)C1NC(=O)CNC(=O)C(CO)NC(=O)C(C(O)C2CNC(=N)N2C2OC(CO)C(O)C(O)C2O)NC(=O)C(C(O)C2CNC(=N)N2)NC(=O)C(Cc2ccc(OC3OC(CO)C(OC4OC5COC(Cc6ccc(Cl)cc6)OC5C(O)C4O)C(O)C3O)cc2)NC1=O (centres unmarked)	<	0.5
CCCC(CCC)C(=O)OCC1OC(OC2C(CO)OC(Oc3ccc(CC4NC(=O)C(C(C)c5ccccc5)NC(=O)CNC(=O)C(CO)NC(=O)C(C(O)C5CNC(=N)N5C5OC(CO)C(O)C(O)C5O)NC(=O)C(C(O)C5CNC(=N)N5)NC4=O)cc3)C(O)C2O)C(O)C(O)C1O (centres unmarked) [Example 99c]	=	1

###

Listed here: items and their measured MIC Enterococcus faecium (GC 4556).
System: Enterococcus sp.
TEST_NAME: in vitro antibacterial evaluation, MIC by broth dilution
Format: cell-based
CONDITION_LABEL: broth dilution, inoculum 5×10^5 CFU/mL, 18 hours at 35° C.; strain GC 4556

COMPOUND	MIC Enterococcus faecium (GC 4556) (µg/mL)
COc1ccc2cc(C3OCC4OC(OC5C(CO)OC(Oc6ccc(CC7NC(=O)C(C(C)c8ccccc8)NC(=O)CNC(=O)C(CO)NC(=O)C(CC8CNC(=N)N8C8OC(CO)C(O)C(O)C8O)NC(=O)C(CC8CNC(=N)N8)NC7=O)cc6)C(O)C5O)C(O)C(O)C4O3)ccc2c1 (stereo not shown) [Example 190]	32
CCCC(C)C1OCC2OC(OC3C(CO)OC(Oc4ccc(CC5NC(=O)C(C(C)c6ccc(Cl)cc6)NC(=O)CNC(=O)C(CO)NC(=O)C(C(O)C6CNC(=N)N6C6OC(CO)C(O)C(O)C6O)NC(=O)C(C(O)C6CNC(=N)N6)NC5=O)cc4)C(O)C3O)C(O)C(O)C2O1 (stereo not shown) [Example 194]	1
Cc1ccc(Oc2ccc(C3OCC4OC(OC5C(CO)OC(Oc6ccc(CC7NC(=O)C(C(C)c8ccccc8)NC(=O)CNC(=O)C(CO)NC(=O)C(C(O)C8CNC(=N)N8C8OC(CO)C(O)C(O)C8O)NC(=O)C(C(O)C8CNC(=N)N8)NC7=O)cc6)C(O)C5O)C(O)C(O)C4O3)cc2)cc1 (stereo not shown) [Example 174]	1
CC(c1ccccc1)C1NC(=O)CNC(=O)C(CO)NC(=O)C(C(O)C2CNC(=N)N2C2OC(CO)C(O)C(O)C2O)NC(=O)C(C(O)C2CNC(=N)N2)NC(=O)C(Cc2ccc(OC3OC(CO)C(OC4OC5COC6(CCCCC6C)OC5C(O)C4O)C(O)C3O)cc2)NC1=O (stereo not shown) [Example 204]	16
CC(=O)n1cc(C2OCC3OC(OC4C(CO)OC(Oc5ccc(CC6NC(=O)C(C(C)c7ccccc7)NC(=O)CNC(=O)C(CO)NC(=O)C(C(O)C7CNC(=N)N7C7OC(CO)C(O)C(O)C7O)NC(=O)C(C(O)C7CNC(=N)N7)NC6=O)cc5)C(O)C4O)C(O)C(O)C3O2)c2ccccc21 (stereo not shown) [Example 161]	16
CC(c1ccccc1)C1NC(=O)CNC(=O)C(CO)NC(=O)C(C(O)C2CNC(=N)N2C2OC(CO)C(O)C(O)C2O)NC(=O)C(C(O)C2CNC(=N)N2)NC(=O)C(Cc2ccc(OC3OC(CO)C(OC4OC5COC(c6ccc(C=Cc7ccccc7)cc6)OC5C(O)C4O)C(O)C3O)cc2)NC1=O (stereo not shown) [Example 172]	8
CC(C)=CCCC(C)=CCOc1ccc(C2OCC3OC(OC4C(CO)OC(Oc5ccc(CC6NC(=O)C(C(C)c7ccccc7)NC(=O)CNC(=O)C(CO)NC(=O)C(C(O)C7CNC(=N)N7C7OC(CO)C(O)C(O)C7O)NC(=O)C(C(O)C7CNC(=N)N7)NC6=O)cc5)C(O)C4O)C(O)C(O)C3O2)cc1 (stereo not shown) [Example 183]	8

###

Test system: Enterococcus sp.
TEST_NAME: in vitro antibacterial evaluation, MIC by broth dilution
Type: cell-based
CONDITION_LABEL: Enterococcus avium (GC 4558); broth dilution, 18 hours at 35° C.

COMPOUND	MIC Enterococcus avium (GC 4558)
CC(c1ccccc1)C1NC(=O)CNC(=O)C(CO)NC(=O)C(C(O)C2CNC(=N)N2C2OC(CO)C(O)C(O)C2O)NC(=O)C(C(O)C2CNC(=N)N2)NC(=O)C(Cc2ccc(OC3OC(CO)C(OC4OC(CO)C(O)C5OC(CC67CC8CC(CC(C8)C6)C7)OC45)C(O)C3O)cc2)NC1=O (stereo not shown) [Example 128]	4 µg/mL
CC(c1ccccc1)C1NC(=O)CNC(=O)C(CO)NC(=O)C(C(O)C2CN(Cc3ccc4ccccc4c3)C(=N)N2C2OC(CO)C(O)C(O)C2O)NC(=O)C(C(O)C2CNC(=N)N2)NC(=O)C(Cc2ccc(OC3OC(CO)C(OC4OC(CO)C(O)C(O)C4O)C(O)C3O)cc2)NC1=O (stereo not shown) [Example 67]	64 µg/mL
CC(c1ccccc1)C1NC(=O)CNC(=O)C(CO)NC(=O)C(C(O)C2CN(Cc3ccc(C(C)(C)C)cc3)C(=N)N2C2OC(CO)C(O)C(O)C2O)NC(=O)C(C(O)C2CNC(=N)N2)NC(=O)C(Cc2ccc(OC3OC(CO)C(OC4OC5COC6(OC5C(O)C4O)C4CC5CC(C4)CC6C5)C(O)C3O)cc2)NC1=O (stereo not shown) [Example 77]	4 µg/mL
CC(C1CCCCC1)C1NC(=O)CNC(=O)C(CO)NC(=O)C(C(O)C2CNC(=N)N2C2OC(CO)C(O)C(O)C2O)NC(=O)C(C(O)C2CNC(=N)N2)NC(=O)C(C[C@H]2CC[C@H](O)CC2)NC1=O (stereo partly shown) [Example 54a]	128 µg/mL

Where these numbers come from: patent US6914045B2
